Tested on: H9C2 cardiomyocytes
test.method.notes: Quantification of phenylephrine-induced EGFP synthesis as surrogate for cell size (hypertrophy)
Assay type: cell-based, rat
condition: Rattus norvegicus; H9C2 cardiomyocytes transformed with CMV-EGFP lentiviral particles; FIG. 2B; read-out: EC50 for increase of EGFP fluorescence
readout.name: EC50 (nM)
Answers are plain numbers, in nM.

Qu. So what does the record say about EC50 for CNC[C@H](O)c1cccc(O)c1 ?
Ans. 5.2

----------
System: H9C2 cardiomyocytes
test.method.notes: Quantification of phenylephrine-induced EGFP synthesis as surrogate for cell size (hypertrophy)
Assay type: cell-based, rat
condition: 30 μM SUL compound; calculated as 100%-Emax
readout.name: SUL EGFP Inhibition (%)
Numbers only, in %.

Example cases with answers are listed next.
molecule	recorded.number
Cc1c(C)c2c(c(C)c1O)CC[C@@](C)(C(=O)N1CCNCC1)O2	56.8
COC(=O)CNC(=O)C1(C)CCc2c(C)c(O)c(C)c(C)c2O1 (stereo not shown) [SUL-99, reference compound]	55.11
Cc1c(C)c2c(c(C)c1O)CC[C@@](C)(C(=O)N1CCN(CCO)CC1)O2	63.18

For every item in the list below, what is its measured SUL EGFP Inhibition (%)?
1. Cc1c(C)c2c(c(C)c1O)CCC(C)(C(=O)O)O2 (stereo not shown) [SUL-11, reference compound]
2. Cc1c(C)c2c(c(C)c1O)CC[C@@](C)(C(=O)N[C@@H]1CCCNC1)O2
3. Cc1c(C)c(O)c(CC[C@@](C)(O)C(=O)N2CCN(CCO)CC2)c(C)c1O
4. Cc1c(C)c2c(c(C)c1O)CC[C@](C)(C(=O)N1CCNCC1)O2

Ans.
1: 54.05; 2: 68.85; 3: 43.92; 4: 66.49

----------
System: H9C2 cardiomyocytes
test.method.notes: Protein synthesis by H9C2 cardiomyocytes after phenylephrine
Format: cell-based
condition: Rattus norvegicus, FIG. 2D, read-out: EC50 for increase of protein synthesis
readout.name: pEC50
Give bare numbers, as −log10 of the molar value.

Qu. # input compound: CNC[C@H](O)c1cccc(O)c1 ; wanted: its pEC50
Ans. 9.26
